I'd appreciate it if you could supply pKi values for the items below.
- targetUnderTest: Delta-type opioid receptor (Mus musculus, UniProt P32300)
- Sequence (P32300 whole entry): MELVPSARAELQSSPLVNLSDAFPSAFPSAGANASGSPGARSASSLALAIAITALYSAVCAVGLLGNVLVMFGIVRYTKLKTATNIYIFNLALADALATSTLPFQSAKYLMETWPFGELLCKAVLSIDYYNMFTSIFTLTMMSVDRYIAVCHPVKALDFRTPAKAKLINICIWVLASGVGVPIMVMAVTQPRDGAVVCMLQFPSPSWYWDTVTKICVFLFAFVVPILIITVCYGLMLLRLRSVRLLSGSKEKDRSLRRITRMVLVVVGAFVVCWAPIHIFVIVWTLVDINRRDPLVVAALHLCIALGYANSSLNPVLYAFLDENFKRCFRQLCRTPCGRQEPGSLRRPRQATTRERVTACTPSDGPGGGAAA
- assayNotes: Binding affinity towards mouse Opioid receptor delta 1 expressed in CHO cells of chinese hamster ovary was determined using [3H]-[…] as radioligand
- Type: cell-based
pKi: −log10 of the molar value.

Form: compound = CC(C)C[C@H](NC(=O)[C@]1(NC(=O)CNC(=O)CNC(=O)[C@@H](N)Cc2ccc(O)cc2)CCc2ccccc2C1)C(=O)N[C@@H](CCCNC(=N)N)C(=O)N[C@@H](CCCNC(=N)N)C(=O)N[C@H](C)C(=O)N[C@@H](CCCNC(=N)N)C(=O)N1CCC[C@H]1C(=O)N[C@@H](CCCCN)C(N)=O ; pKi = < 5.00

Form field pKi, entry CC(C)C[C@H](NC(=O)[C@@H]1Cc2ccccc2CN1C(=O)CNC(=O)CNC(=O)[C@@H](N)Cc1ccc(O)cc1)C(=O)N[C@@H](CCCNC(=N)N)C(=O)N[C@@H](CCCNC(=N)N)C(=O)N[C@H](C)C(=O)N[C@@H](CCCNC(=N)N)C(=O)N1CCC[C@H]1C(=O)N[C@@H](CCCCN)C(N)=O : 5.44

The recorded pKi for entry CC(C)C[C@H](NC(=O)C1(NC(=O)CNC(=O)CNC(=O)[C@@H](N)Cc2ccc(O)cc2)Cc2ccccc2C1)C(=O)N[C@@H](CCCN=C(N)N)C(=O)N[C@@H](CCCN=C(N)N)C(=O)N[C@H](C)C(=O)N[C@@H](CCCN=C(N)N)C(=O)N1CCC[C@H]1C(=O)N[C@@H](CCCCN)C(N)=O equals < 5.00

====

- targetUnderTest: UniProt P33535
- Sequence (P33535 whole entry): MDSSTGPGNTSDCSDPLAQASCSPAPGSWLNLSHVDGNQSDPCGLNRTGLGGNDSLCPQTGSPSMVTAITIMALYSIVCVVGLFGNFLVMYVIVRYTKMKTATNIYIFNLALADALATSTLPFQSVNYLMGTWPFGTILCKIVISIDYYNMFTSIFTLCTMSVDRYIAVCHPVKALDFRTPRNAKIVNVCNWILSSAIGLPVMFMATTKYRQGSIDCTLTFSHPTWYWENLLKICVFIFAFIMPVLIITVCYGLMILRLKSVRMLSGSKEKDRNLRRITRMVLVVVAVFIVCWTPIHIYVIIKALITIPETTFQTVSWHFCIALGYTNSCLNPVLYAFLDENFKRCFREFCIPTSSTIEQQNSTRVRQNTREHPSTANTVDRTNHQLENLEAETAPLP
- assayNotes: Binding affinity towards rat Opioid receptor mu 1 expressed in CHO cells of chinese hamster ovary was determined using [3H]DAMGO
- Format: cell-based
- conditionDetails: cho
measuredAttribute: pKi
// returns pKi (minus log10 of molar concentration), number only

// pKi lookup, compound = CC(C)C[C@H](NC(=O)[C@H](Cc1ccccc1)N(C)C(=O)CNC(=O)CNC(=O)[C@@H](N)Cc1ccc(O)cc1)C(=O)N[C@@H](CCCN=C(N)N)C(=O)N[C@@H](CCCN=C(N)N)C(=O)N[C@H](C)C(=O)N[C@@H](CCCN=C(N)N)C(=O)N1CCC[C@H]1C(=O)N[C@@H](CCCCN)C(N)=O , result: 8.99

Form field pKi, entry CC(C)C[C@H](NC(=O)[C@@H](CCc1ccccc1)NC(=O)CNC(=O)CNC(=O)[C@@H](N)Cc1ccc(O)cc1)C(=O)N[C@@H](CCCN=C(N)N)C(=O)N[C@@H](CCCN=C(N)N)C(=O)N[C@H](C)C(=O)N[C@@H](CCCN=C(N)N)C(=O)N1CCC[C@H]1C(=O)N[C@@H](CCCCN)C(N)=O : 7.86

CC(C)C[C@H](NC(=O)[C@@](C)(Cc1ccccc1)NC(=O)CNC(=O)CNC(=O)[C@@H](N)Cc1ccc(O)cc1)C(=O)N[C@@H](CCCN=C(N)N)C(=O)N[C@@H](CCCN=C(N)N)C(=O)N[C@H](C)C(=O)N[C@@H](CCCN=C(N)N)C(=O)N1CCC[C@H]1C(=O)N[C@@H](CCCCN)C(N)=O has a reported pKi of 8.49

pKi for CC(C)C[C@H](NC(=O)[C@@H](Cc1ccccc1)NC(=O)CNC(=O)CNC(=O)[C@@H](N)Cc1ccc(O)cc1)C(=O)N[C@@H](CCCN=C(N)N)C(=O)N[C@@H](CCCN=C(N)N)C(=O)N[C@H](C)C(=O)N[C@@H](CCCN=C(N)N)C(=O)N1CCC[C@H]1C(=O)N[C@@H](CCCCN)C(N)=O is 8.38
